MEASUREMENT_TYPE: boiling point (°C)
A number alone suffices; assume °C.

[Q] Input CC(C)=CCl , output reported boiling point.
[A] 68

[Q] Give boiling point for the following compound: IC(I)I
[A] 218

[Q] Query boiling point for CC(C)C(=O)Cl
[A] 92

[Q] Quote boiling point reported for C1=CSCC1 please.
[A] 112

[Q] Given CC1CS1 (stereo not given) , respond with its boiling point.
[A] 72.5

[Q] Read off the recorded boiling point for Clc1cccc2ncccc12
[A] 256

[Q] Could you please provide reported boiling point for ClCc1ccc(Br)cc1 ? Thanks!
[A] 236

[Q] Respond only with boiling point recorded for OCC(Cl)Cl
[A] 146

[Q] Answer with reported boiling point of N#CCCCl
[A] 176

[Q] Read off the recorded boiling point for CC(C)c1ccc(O)cc1
[A] 230

[Q] Provide measured boiling point value, entry: C=CCCCc1ccccc1
[A] 201

[Q] For the compound CSC#N , give its measured boiling point value.
[A] 133

[Q] For the compound c1ccoc1 , give its reported boiling point.
[A] 31.5

[Q] # return recorded boiling point for input CCCCC(N)=O
[A] 225

[Q] Give the measured boiling point for COC(=O)c1cc(OC)c(OC)c(OC)c1
[A] 274

[Q] State its boiling point for this compound: Fc1ccc(F)cc1
[A] 89

[Q] Quick one: give measured boiling point for CCCC(C)C(C)C(C)C (stereo not given)
[A] 161

[Q] Check the records and state boiling point for C=Cc1ccccn1
[A] 160

[Q] Quick one: give measured boiling point for NC=O
[A] 220

[Q] # return recorded boiling point for entry CCOC(=O)CCC=O
[A] 162

----------
Can you tell me melting point for the items I'm about to list?
Number in °C, nothing else.

[Q] For the compound COc1cc(Cl)c(Cl)c(Cl)c1OC , give its reported melting point.
[A] 66

[Q] Give melting point for the following compound: CN(C)CCCN1c2ccccc2Sc2ccc(Cl)cc21.Cl
[A] 195

[Q] Complete the entry with melting point for O=c1cc[nH]c2ccccc12
[A] 201

[Q] Given the compound C=COC=C , write its reported melting point.
[A] -101

[Q] Recall and state the measured melting point for Nc1cccc(N)n1 .
[A] 122

[Q] Given the compound CC[N+](CC)(CC)CCOC(=O)C(C1CCCC1)C1CCCC1.[Br-] , write its reported melting point.
[A] 186

[Q] Quickly give me recorded melting point for OC[C@H]1O[C@@H](n2cnc3cncnc32)[C@H](O)[C@@H]1O
[A] 181

[Q] Indicate the recorded melting point value for this compound: N#Cc1ccccc1OCC(O)CNCCNC(=O)Cc1ccc(O)cc1 (stereo not given)
[A] 119

[Q] Using the record for O=C(Oc1ccccc1)Oc1ccccc1 , state its measured melting point.
[A] 83

[Q] Give melting point for CC1(C)COC(=O)C1O (stereo not given)
[A] 92

[Q] // fetch melting point given entry N#CCCOCCC#N
[A] -26.3

[Q] Specify melting point for CCOC(=O)c1cn2nc(OP(=S)(OCC)OCC)cc2nc1C and stop.
[A] 51

[Q] Look up and report measured melting point for this entry: c1ccc(CCCCc2ccccc2)cc1
[A] 52.5

[Q] State, in one line, measured melting point of Cc1ccc(Br)cc1
[A] 28.5

[Q] Return reported melting point. Input compound: COC(=O)c1cccc(I)c1
[A] 54.5
